Measured property: melting point

[
  {
    "Input smiles": "CCCN1C(=O)CCc2cc(CNS(=O)(=O)c3ccc(OC)cc3)ccc21",
    "melting point": "143 to 144 °C"
  },
  {
    "Input smiles": "CCN1C(=O)CCc2cc(CNS(=O)(=O)c3cc(Cl)sc3Cl)ccc21",
    "melting point": "198 to 201 °C"
  },
  {
    "Input smiles": "CCCN1C(=O)CCc2cc(CNS(=O)(=O)c3ccccc3)ccc21",
    "melting point": "159 to 161 °C"
  },
  {
    "Input smiles": "CCCN1C(=O)CCc2cc(CNS(=O)(=O)c3ccc(Cl)cc3)ccc21",
    "melting point": "138 to 139 °C"
  },
  {
    "Input smiles": "CCN1C(=O)CCc2cc(CNS(=O)(=O)c3ccc(Br)cc3)ccc21",
    "melting point": "176 to 183 °C"
  },
  {
    "Input smiles": "CCN1C(=O)CCc2cc(CNS(=O)(=O)/C=C/c3ccc(C)cc3)ccc21",
    "melting point": "151 to 153 °C"
  }
]

Problem: Can you share its melting point? I mean this compound: CCN1C(=O)CCc2cc(CNS(=O)(=O)/C=C/c3cccc(Cl)c3)ccc21
Solution: 149 to 151 °C

Problem: Can you share its melting point? I mean this compound: CCN1C(=O)CCc2cc(CNS(=O)(=O)c3ccc(C)s3)ccc21
Solution: 149 to 152 °C

---

# System: corn plants (variety NK OCTET)
# Protocol summary: Reduced plant water use in corn (foliar spray, repeated weighing of pots)
# Type: in vivo
# Settings: Zea mays, 60 h, corn plants sprayed at 500 μM, cumulative total water use 0-2.5 DAA (sum of the time points) vs negative control, average of 6 pots, read-out: % WU Total 0 to 2.5 DAA
Collected change in vivo at 500 µM values appear next to each entry.
Response body: numeric value in %, unit text excluded.

[
  {
    "Molecule": "CCN1C(=O)CCc2cc(CNS(=O)(=O)/C=C/c3cccc(Br)c3)ccc21",
    "Tested on": "corn plants (variety NK OCTET)",
    "change in vivo at 500 µM, %": -5
  },
  {
    "Molecule": "CCN1C(=O)CCc2cc(CNS(=O)(=O)c3ccc(C)s3)ccc21",
    "Tested on": "corn plants (variety NK OCTET)",
    "change in vivo at 500 µM, %": -6.2
  },
  {
    "Molecule": "CCCN1C(=O)CCc2cc(C3(NS(=O)(=O)c4ccc(F)cc4)CC3)ccc21",
    "Tested on": "corn plants (variety NK OCTET)",
    "change in vivo at 500 µM, %": -7.1
  },
  {
    "Molecule": "CCN1C(=O)CC(C)c2cc(CNS(=O)(=O)c3ccccc3)ccc21 (stereo not shown)",
    "Tested on": "corn plants (variety NK OCTET)",
    "change in vivo at 500 µM, %": -12.9
  },
  {
    "Molecule": "CCCN1C(=O)CCc2cc(CNS(=O)(=O)c3ccccc3Br)ccc21",
    "Tested on": "corn plants (variety NK OCTET)",
    "change in vivo at 500 µM, %": -2.7
  }
]

Problem: Can you share its change in vivo at 500 µM? I mean this molecule: CCCN1C(=O)CCc2cc(CNS(=O)(=O)/C=C/c3ccccc3)ccc21
Solution: -6.2

Problem: Can you share its change in vivo at 500 µM? I mean this molecule: CCCN1C(=O)CCc2cc(CNS(=O)(=O)c3ccc(OC)cc3)ccc21
Solution: -5.5

Problem: Can you share its change in vivo at 500 µM? I mean this molecule: CCCN1C(=O)CCc2cc(CNS(=O)(=O)CCC(F)(F)F)ccc21
Solution: -11.1
